Every entry's value here was drawn from patent US20170096461A1.

Listed binders paired with reported peptide exchange yield
molecular target: T1, HLA-A*02:01 (peptide-receptive MHC class I monomer after UV-ligand exchange) (human); test: UV-ligand exchange + anti-b2m ELISA; exchange yield grade: + >=10%, ++ >=20%, +++ >=50, ++++ >=75%
T1 construct: Monomers made with a UV-sensitive peptide that is cleaved by UV and exchanged for the test peptide; captured on streptavidin plates; also called MHC molecules

Recorded results for 3 binders are shown here.
- binder: "VMFNFPDQATV [peptide VMFNFPDQATV (SEQ ID NO: 2)]"
  peptide exchange yield: "50 to 75%"
- binder: "KMLDEAVFQV [peptide KMLDEAVFQV (SEQ ID NO: 26)]"
  peptide exchange yield: "≥ 75%"
- binder: "ALFPVAEDISL [peptide ALFPVAEDISL (SEQ ID NO: 94)]"
  peptide exchange yield: "50 to 75%"

Kindly consider the entry below.
QUERY: Item VLLTTAVEV [peptide VLLTTAVEV (SEQ ID NO: 19)] has what recorded peptide exchange yield?
RESULT: 50 to 75%
